# system.name: human TRPC5 (Homo sapiens)
# Construct: expressed in transfected cells; host or cells: HEK 293
# assay.notes: TRPC5 fluorescence-based assay (Ca2+ flux assay in FLIPR format), cells overexpressing TRPC5
# Assay type: cell-based
# run.conditions: 5 μM of test compound, following Carbachol stimulation
value.type: inhibition at 5 µM (%)

compound | system.name | value.type | numeric.result
Clc1ccc(Cn2c(NCc3cccs3)nc3ccccc32)cc1 | human TRPC5 (Homo sapiens) | inhibition at 5 µM | 72
COc1ccccc1Cn1c(C)nc2ccccc21 | human TRPC5 (Homo sapiens) | inhibition at 5 µM | 73.4
COc1ccc(-n2c(SCC(=O)Nc3cccc(S(=O)(=O)N4CCOCC4)c3)nc3ccccc32)cc1 | human TRPC5 (Homo sapiens) | inhibition at 5 µM | 69.6
Cc1ccc(Cn2c(CN3CCC(CN)C3)nc3ccccc32)cc1 (stereo not drawn) | human TRPC5 (Homo sapiens) | inhibition at 5 µM | 51.8
CCCn1c(-c2ccc(Br)cc2)nc2ccccc21 | human TRPC5 (Homo sapiens) | inhibition at 5 µM | 61.4
Brc1cccc(CNc2nc3ccccc3n2CCN2CCCCC2)c1 | human TRPC5 (Homo sapiens) | inhibition at 5 µM | 55

====

# system.name: human TRPC5 (Homo sapiens, UniProt Q9UL62)
# Construct: expressed in transfected cells; host or cells: HEK 293
# Sequence (Q9UL62 whole entry): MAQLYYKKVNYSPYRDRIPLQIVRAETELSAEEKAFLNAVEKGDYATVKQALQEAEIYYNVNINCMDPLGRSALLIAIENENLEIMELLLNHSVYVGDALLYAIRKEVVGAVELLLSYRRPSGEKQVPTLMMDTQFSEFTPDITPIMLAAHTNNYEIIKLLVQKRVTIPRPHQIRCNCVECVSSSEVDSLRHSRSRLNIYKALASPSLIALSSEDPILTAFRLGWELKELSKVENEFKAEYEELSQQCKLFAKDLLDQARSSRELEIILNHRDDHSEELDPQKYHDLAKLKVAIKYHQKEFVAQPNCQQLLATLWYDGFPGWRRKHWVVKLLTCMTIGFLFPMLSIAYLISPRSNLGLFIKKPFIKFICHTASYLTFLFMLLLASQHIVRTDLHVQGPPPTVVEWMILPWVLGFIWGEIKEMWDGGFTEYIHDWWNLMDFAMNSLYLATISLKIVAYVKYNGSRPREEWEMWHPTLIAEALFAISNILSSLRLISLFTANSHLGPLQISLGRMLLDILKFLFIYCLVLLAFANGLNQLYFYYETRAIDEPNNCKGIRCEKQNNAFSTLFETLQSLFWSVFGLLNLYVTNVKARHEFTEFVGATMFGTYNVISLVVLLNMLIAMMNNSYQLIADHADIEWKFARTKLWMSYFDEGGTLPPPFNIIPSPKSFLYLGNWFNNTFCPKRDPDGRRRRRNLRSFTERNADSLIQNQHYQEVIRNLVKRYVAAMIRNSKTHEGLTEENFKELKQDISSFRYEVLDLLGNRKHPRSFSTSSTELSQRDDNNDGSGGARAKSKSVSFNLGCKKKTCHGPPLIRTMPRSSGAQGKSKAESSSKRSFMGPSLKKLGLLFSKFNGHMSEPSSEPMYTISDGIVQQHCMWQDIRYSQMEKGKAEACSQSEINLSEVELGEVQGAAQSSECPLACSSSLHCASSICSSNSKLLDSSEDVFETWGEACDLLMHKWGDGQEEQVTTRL
# assay.notes: TRPC5 fluorescence-based assay (Ca2+ flux assay in FLIPR format), cells overexpressing TRPC5
# Format: cell-based
# run.conditions: 5 μM of test compound, following Carbachol stimulation
value.type: inhibition at 5 µM (%)

compound | inhibition at 5 µM / %
OCCNc1nc2ccccc2n1CCOc1ccccc1 | 40.7
CCCCc1nc2ccccc2n1CC(=O)N1CCCC1c1nc2ccccc2s1 (centres unmarked) | 46.3
COc1ccc(CNc2nc3ccccc3n2Cc2ccc(Cl)cc2)cc1OC | 53.4
COc1ccccc1CNc1nc2ccccc2n1C(C)C | 57.9
CCOc1ccc(NCc2nc3ccccc3n2CCOc2ccccc2C)cc1 | 37.5
CCCn1c(COc2ccccc2)nc2ccccc21 | 30.2

P = CCN(CC)CCn1c(NCc2ccc(OC)cc2OC)nc2ccccc21
Q = CCCCn1c(NCc2ccc(N(CC)CC)cc2)nc2ccccc21
R = Cn1c(CC(O)c2ccccc2)nc2ccccc21 (centres unmarked)
Qu. Returns the items ordered by inhibition at 5 µM, from maximum to minimum. // format: requested-order list of labels
Ans. P, R, Q
(P: 60.9%, R: 42.3%, Q: 28.7%)

a = Cc1cc(NC(=O)Cn2c(NCc3ccccc3)nc3ccccc32)no1
b = COc1ccc(/C=N/c2nc3ccccc3n2Cc2ccccc2)cc1OC
Qu. Of the two listed items, which has the higher inhibition at 5 µM? First: a Second: b Which one? Tell me its label.
Ans. b

A = Nc1nc2ccccc2n1Cc1ccccc1F
B = c1ccc(Cc2nc3ccccc3n2CCCOc2ccccc2)cc1
C = CCC(=O)NCCc1nc2ccccc2n1Cc1ccc(F)cc1
Qu. Returns the items ordered by inhibition at 5 µM, from maximum to minimum. // format: requested-order list of labels
Ans. B, A, C
(B: 85.9%, A: 48.4%, C: 27%)

====

# system.name: human TRPC5 (Homo sapiens, UniProt Q9UL62)
# Construct: expressed in transfected cells; host or cells: HEK 293
# assay.notes: TRPC5 fluorescence-based assay (Ca2+ flux assay in FLIPR format), cells overexpressing TRPC5
# Assay type: cell-based
# run.conditions: 5 μM of test compound, following Carbachol stimulation
value.type: inhibition at 5 µM (%)

Solved cases (2 shown):
record.smiles | numeric.result
Cn1c(NCc2cccc3ccccc23)nc2ccccc21 | 45.5
CCCCCn1c(NCc2ccc(N(C)C)cc2)nc2ccccc21 | 62.7

I = COc1ccc(CCN2CCC(Nc3nc4ccccc4n3CCc3ccc(OC)cc3)CC2)cc1
II = CCCn1c(NCc2nc3ccccc3n2C)nc2ccccc21
Qu. Field: lower inhibition at 5 µM | Options: I / II Which one? Tell me its label.
Ans. II
(II: 42.8%, I: 63.3%)
